# Target Desc: T1, control peptide A2E-21/HLA-A*02:01 complex on T2 cells (member of the P19 mixture) (human)
# T1 construct: Loaded on T2 cells as part of the mixture of 19 control peptides
# Method Description: flow cytometry, phage on T2 cells

Binder	binding result
PSA146/HLA-A*02:01-specific scFv phage clone #18 (scFv, V domains shown) VH: QVQLVQSGAEVKKPGESLKISCKGSGYSFTSYWIGWVRQMPGKGLEWMGIIYPGDSDTRYSPSFQGQVTISADKSISTAYLQWSSLKASDTAMYYCARWGSRGFLDAFDIWGQGTMVTVSS VL: QSVVTQPPSVSAAPGQRVTISCSGSSSNIGNNYVSWYQQLPGAAPRLLIYDNDKRPSGIPDRFSGSKSGTSATLGITGLQTGDEADYYCGTWDSSLSSGVFGGGTKLTVLG	no binding
PSA146/HLA-A*02:01-specific scFv phage clone #5 (scFv, V domains shown) VH: QVQLVQSGAEVKKPGDSVKVSCKPSGYNFLNYGINWVRQAPGQGLEWMGWISTYTGNTNYAQKLQGRVTFTTDTSTSTAYMEMRSLRSDDTAVYYCARSSEYYTWDHWGQGTLVTVSS VL: QSVLTQPPSVSGAPGQRVTISCTGSSSNIGAGYDVHWYQQLPGTAPKLLIYGNSNRPSGVPDRFSGSKSGTSASLAITGLQAEDEADYYCQSYDSSLSGWVFGGGTKLTVLG	no binding
PSA146/HLA-A*02:01-specific scFv phage clone #6 (scFv, V domains shown) VH: EVQLVQSGAEVKKPGASVKVSCKASGYTFTGYYIHWVRQAPGQGLEWMGGFDPEDGETIYAQKFQDRVTMTADTSTDTAYMELSSLRSEDTAVYYCARYGFDYWGQGTLVTVSS VL: QAVVTQEPSLTVSPGGTVTLTCASSTGAVTSGYYPNWFQLKPGQAPRALIYTTGKKHSWAPARFSGSLLGGKAALTLSGVQPEDEAEYYCLLYSGGVWVFGGGTKLTVLG	no binding

Values compiled from patent US20200087400A1.
